Measured Tmax accompanies every entry in the list below.
PROTOCOL DETAILS: Tmax in Sprague-Dawley rat at 10 mg/kg, iv measured upto 24 hrs by LC-MS analysis
Format: ADME, organism-based
TEST PARAMETERS: in vivo
Only the number, expressed in min, is required.

O=C(OCCCCCC1CCSS1)N1CCCN(S(=O)(=O)c2cccc3cnccc23)CC1 (configuration not stated): 12

Entry O=C(CCCCC1CCSS1)N1CCN(C(c2ccc(F)cc2)c2ccc(F)cc2)CC1 (configuration not stated) : reported Tmax = ?
4.98

###

PROTOCOL DETAILS: AUC (0 to infinity) in Sprague-Dawley rat at 10 mg/kg, ip measured upto 24 hrs by LC-MS analysis
Assay type: ADME, organism-based
TEST PARAMETERS: in vivo
PARAMETER MEASURED: AUC(0-inf)
The answer should read as a number with its unit following.

Given the entry O=C(CCCCC1CCSS1)N1CCN(C(c2ccc(F)cc2)c2ccc(F)cc2)CC1 (stereo unspecified) , report its measured AUC(0-inf).
1660 ng·h/mL

###

PROTOCOL DETAILS: Apparent volume of distribution during terminal phase in Sprague-Dawley rat at 10 mg/kg, ip measured upto 24 hrs by LC-MS analysis
Type: ADME, organism-based
TEST PARAMETERS: in vivo, read-out: Vz/F
PARAMETER MEASURED: Vd/F

Record request: Vd/F value, item O=C(CCCCC1CCSS1)N1CCN(C(c2ccc(F)cc2)c2ccc(F)cc2)CC1 (stereo unspecified)
6.1 L/kg

###

Some compounds, each annotated with its measured CC50.
PROTOCOL DETAILS: Cytotoxicity against mouse BV-2 cells by MTT assay
Type: toxicity, cell-based
TEST PARAMETERS: read-out: TC50 (the source's name)

COc1cc(/C=C/C(=O)N2CCCN(S(=O)(=O)c3cccc4cnccc34)CC2)ccc1OCCO[N+](=O)[O-]: > 100 µM

Entry under review: O=C(CCCCC1CCSS1)N1CCCN(S(=O)(=O)c2cccc3c(O)nccc23)CC1 (stereo unspecified) . Reported CC50?
> 100 µM

Which measured CC50 value corresponds to COc1cc(/C=C/C(=O)N2CCCN(S(=O)(=O)c3cccc4c(O)nccc34)CC2)ccc1OC(C)=O ?
> 20 µM

Quick check: CC50 of O=C(CCCCC1CCSS1)N1CCN(C(c2ccccc2)c2ccccc2)CC1 (stereo unspecified) ?
63 µM

I'd like to know its CC50. The compound in question is O=C(CCCCC1CCSS1)N1CCN(S(=O)(=O)c2cccc3cnccc23)CC1 (stereo unspecified)
> 100 µM

Could you tell me which CC50 is on file for O=S(=O)(c1cccc2cnccc12)N1CCCN(C(c2ccc(F)cc2)c2ccc(F)cc2)CC1 ?
62 µM

###

// values below are reported AUC(0-inf)
PROTOCOL DETAILS: AUC (0 to infinity) in Sprague-Dawley rat at 10 mg/kg, iv measured upto 24 hrs by LC-MS analysis
Type: ADME, organism-based
TEST PARAMETERS: in vivo
Unit ng·h/mL implied. Number only.

O=C(CCCCC1CCSS1)N1CCN(C(c2ccc(F)cc2)c2ccc(F)cc2)CC1 (configuration not stated): 3360

We now examine a further compound.
Which value of AUC(0-inf) has been reported for O=C(OCCCCCC1CCSS1)N1CCCN(S(=O)(=O)c2cccc3cnccc23)CC1 (configuration not stated) in the records?
1950

Reference source for all entries: ChEMBL document CHEMBL6083212
